studySystem: CypE K212A (Homo sapiens, UniProt Q9UNP9, K212A)
Construct: Lane 4- GS-CypE K212A (131-301);; His6 tag with thrombin site (pET28a LIC); GS remnant stays on the N-terminus (N, cleaved yes)
Sequence (Q9UNP9 131-301 K212A): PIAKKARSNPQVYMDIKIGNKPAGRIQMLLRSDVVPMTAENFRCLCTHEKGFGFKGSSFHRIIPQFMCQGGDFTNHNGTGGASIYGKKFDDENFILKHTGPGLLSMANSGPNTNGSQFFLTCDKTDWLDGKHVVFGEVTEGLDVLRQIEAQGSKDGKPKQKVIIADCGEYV
measurementNotes: Chymotrypsin coupled prolyl-isomerase assay
recordedConditions: mutant CypE K212A; read-out: Mutant Cyclophilin Prolyl Isomerase Inhibition IC50 Values, CypE K212A
recordedEndpoint: IC50 (µM)
Number only, in µM; omit the unit.

Kindly note the recorded IC50 for NC(=O)C1CCNC(=O)C=CC(=O)N2CCCC(Cc3ccccc3)(C2)C(=O)NC(Cc2ccc(-c3ccc(C=O)c(B(O)O)c3)cc2)C(=O)NCc2ccccc2CC(=O)N1 (stereo not shown) , which is 0.03
